# Assayed Target: CDK11A/Cyclin L2 (Homo sapiens)
# Sequence (Q9UQ88 1-783): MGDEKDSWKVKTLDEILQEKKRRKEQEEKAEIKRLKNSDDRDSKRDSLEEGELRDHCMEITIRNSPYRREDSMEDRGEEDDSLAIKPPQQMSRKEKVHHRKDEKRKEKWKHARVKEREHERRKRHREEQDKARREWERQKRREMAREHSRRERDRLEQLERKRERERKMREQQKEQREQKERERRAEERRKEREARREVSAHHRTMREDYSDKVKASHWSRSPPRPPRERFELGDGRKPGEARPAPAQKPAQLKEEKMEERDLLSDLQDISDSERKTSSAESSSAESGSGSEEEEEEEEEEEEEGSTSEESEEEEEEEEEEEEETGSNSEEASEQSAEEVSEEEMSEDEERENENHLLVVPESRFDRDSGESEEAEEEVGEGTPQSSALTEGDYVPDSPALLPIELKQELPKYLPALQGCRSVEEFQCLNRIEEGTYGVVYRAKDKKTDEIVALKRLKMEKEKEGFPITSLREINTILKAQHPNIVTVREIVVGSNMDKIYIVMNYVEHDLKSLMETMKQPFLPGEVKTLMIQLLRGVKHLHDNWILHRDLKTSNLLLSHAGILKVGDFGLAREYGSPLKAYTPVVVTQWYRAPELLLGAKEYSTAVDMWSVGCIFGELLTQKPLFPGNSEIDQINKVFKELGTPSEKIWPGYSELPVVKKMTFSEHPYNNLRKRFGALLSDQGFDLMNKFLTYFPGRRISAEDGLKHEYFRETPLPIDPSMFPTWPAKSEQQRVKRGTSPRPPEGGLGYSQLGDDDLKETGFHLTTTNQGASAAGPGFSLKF
# Assay Notes: NanoBRET live-cell target engagement, CDK11A-NanoLuc/Cyclin L2 in HEK-293
# Format: binding
# Test Settings: 10µM; independent experiment 2; read-out: CDK11a/L2 Inhibition at 10µM (%)
Short version: inhibition at 10 µM at least 50% is Condition met, less is Condition not met.

## Input Could you please find out whether CN(C)C/C=C/C(=O)Nc1ccc(C(=O)N2CCC[C@@H](Nc3ncc(Cl)c(-c4c[nH]c5ccccc45)n3)C2)cc1 [THZ531] has inhibition at 10 µM that meets 50% or exceeds it?
## Output Condition met

## Input Entry CN1C/C=C/CCOc2cccc(c2)-c2ccnc(n2)Nc2cccc(c2)C1 [SB1317] please
## Output Condition met

## Input Same read-out for CN1CCN(c2ccc(Nc3ncc4cc5n(c4n3)C3(CCCCC3)CNC5=O)nc2)CC1 [Trilaciclib] ?
## Output Condition not met

## Input Would you kindly repeat that for CN(C)C(=O)c1cc2cnc(Nc3ccc(N4CCNCC4)cn3)nc2n1C1CCCC1 [Ribociclib] ?
## Output Condition not met

## Input Now the compound CC(C)[C@H](CO)Nc1nc(Nc2ccc(C(=O)O)c(Cl)c2)c2ncn(C(C)C)c2n1 [Purvalanol B]
## Output Condition not met

## Input Let us now turn to CC(=O)c1c(C)c2cnc(Nc3ccc(N4CCNCC4)cn3)nc2n(C2CCCC2)c1=O [Palbociclib]
## Output Condition not met
